# Tested on: HCV replicon 1AY93H
# Assay Info: microbe, parasite or virus in culture
# Type: cell-based, Hepatitis C virus (HCV)
# Measurement Conditions: read-out: 1A Y93H IC50; replicon 1AY93H; Replicon Assay A
pIC50: −log10 of the molar value.
Property Measured: pIC50

[[record]]
compound = "COC(=O)N[C@H](C(=O)N1CCC[C@H]1c1ncc(-c2cc(F)c3c(c2)OC(c2sc(C4CC4)cc2F)n2c-3cc3cc(-c4cnc([C@@H]5CCCN5C(=O)[C@@H](NC(=O)OC)C(C)C)[nH]4)ccc32)[nH]1)C(C)C (single isomer, unassigned) [Compound 66]"
property_measured = "pIC50"
numeric_result = 9.89

[[record]]
compound = "CCc1ccc(C2Oc3cc(-c4cnc([C@@H]5CCCN5C(=O)C(NC(=O)OC)C5C[C@@H](C)O[C@@H](C)C5)[nH]4)cc(F)c3-c3cc4cc(-c5cnc([C@@H]6CCCN6C(=O)C(NC(=O)OC)C6C[C@@H](C)O[C@@H](C)C6)[nH]5)ccc4n32)s1 (single isomer, unassigned) [Compound 300]"
property_measured = "pIC50"
numeric_result = 11.70

[[record]]
compound = "COC(=O)NC(C(=O)N1CCC[C@H]1c1ncc(-c2ccc3c(c2)cc2n3C(c3ccc(C4CC4)s3)Oc3cc(-c4cnc([C@@H]5CCCN5C(=O)[C@@H](NC(=O)OC)C(C)C)[nH]4)cc(F)c3-2)[nH]1)C(C)(C)F (single isomer, unassigned) [Compound 76]"
property_measured = "pIC50"
numeric_result = 8.59

[[record]]
compound = "CCc1ccc(C2Oc3cc(-c4cnc([C@@H]5CCCN5C(=O)[C@@H](NC(=O)OC)C(C)C)[nH]4)cc(F)c3-c3cc4cc(-c5cnc([C@@H]6C[C@H]7C[C@H]7N6C(=O)C(NC(=O)OC)C6CCOC(C)(C)C6)[nH]5)ccc4n32)s1 (single isomer, unassigned) [Compound 199]"
property_measured = "pIC50"
numeric_result = 7.58

